# assayTarget: mTORC2 (Homo sapiens (Human), UniProt P42345)
# experimentSummary: mTORC2 inhibitory activity: phosphorylation of AKT in A431 cells (HTRF)
# experimentalContext: 3 hours at 37° C.
experimentalReadout: IC50 (nM)

INSERT INTO measurements (compound, experimentalreadout, uom, numericvalue) VALUES
  ('CC(C)n1nc(-c2ccc3oc(N)nc3c2)c2c(Cl)nc(N)nc21 [Example 31]', 'IC50', 'nM', 21);

[a] CC(C)n1nc(-c2ccc3oc(N)nc3c2)c2cnc(N)nc21 [Example 24]
[b] CCC(C)(C)Cn1nc(-c2ccc3oc(N)nc3c2)c2c(N)nc(N)nc21 [Example 8]
[c] CC(C)(CO)Cn1nc(-c2ccc3oc(N)nc3c2)c2c(N)nc(N)nc21 [Example 15]
[d] CC(C)C[C@H](C)n1nc(-c2cc3nc(N)oc3cc2F)c2c(N)nc(N)nc21 [Example 2]
Asked: Order by IC50, ascending. # list labels per requested ordering
Given back: d, b, c, a
(d: 2.1 nM, b: 3 nM, c: 7.2 nM, a: 15.5 nM)

[A] CC(C)[C@H](C)n1nc(-c2cc3nc(N)oc3cc2Cl)c2c(N)nc(N)nc21 [Example 25]
[B] C#CC(C)(C)Cn1nc(-c2ccc3oc(N)nc3c2)c2c(N)nc(N)nc21 [Example 14]
Asked: Looking at recorded values for IC50, does A or B come in lower? Returns: label corresponding to the selected item.
Given back: B

[a] Cc1nc(N)nc2c1c(-c1ccc3oc(N)nc3c1)nn2CC(C)(C)C [Example 27]
[b] CCNc1nc2cc(-c3nn(CC(C)(C)C)c4nc(N)nc(N)c34)ccc2o1 [Example 11]
Asked: Please indicate which entry, a or b , has the lower recorded IC50 value. Please identify the chosen entry by its label.
Given back: b

* * *

# assayTarget: mTORC2 (Homo sapiens (Human))
# experimentSummary: mTORC2 inhibitory activity: phosphorylation of AKT in A431 cells (HTRF)
# experimentalContext: 3 hours at 37° C.
experimentalReadout: IC50 (nM)

Consider the following illustrative entries.
INSERT INTO measurements (compound, uom, numericvalue) VALUES
  ('CC(C)(Cn1nc(-c2ccc3oc(N)nc3c2)c2c(N)nc(N)nc21)[C@@H]1CCCO1 [Example 13]', 'nM', 4.1),
  ('C=CC(C)(C)Cn1nc(-c2ccc3oc(N)nc3c2)c2c(N)nc(N)nc21 [Example 12]', 'nM', 3.7);

[1] CCC(C)(C)Cn1nc(-c2cc3nc(N)oc3cc2OC)c2c(N)nc(N)nc21 [Example 20]
[2] CCC(CC)(Cn1nc(-c2ccc3oc(N)nc3c2)c2c(N)nc(N)nc21)S(C)(=O)=O [Example 22]
[3] CC(C)n1nc(-c2ccc3oc(N)nc3c2)c2c(N)nc(N)nc21 [Example 21]
[4] CC(C)(C)Cn1nc(-c2cc3cc(O)cnc3[nH]2)c2c(N)nc(N)nc21 [Example 19]
[5] CCC(C)(C)Cn1nc(-c2cc(C)c3oc(N)nc3c2)c2c(N)nc(N)nc21 [Example 29]
Asked: List items by IC50 in falling order. List the labels, following the order given in the request.
Given back: 5, 4, 2, 3, 1
(5: 746 nM, 4: 65.5 nM, 2: 26.6 nM, 3: 10.7 nM, 1: 7 nM)

Data origin: patent US11731973B2
